STUDY_TARGET: human GIP receptor (hGIPR) (Homo sapiens, UniProt P48546)
Construct: expressed in transfected cells
Sequence (P48546 22-466): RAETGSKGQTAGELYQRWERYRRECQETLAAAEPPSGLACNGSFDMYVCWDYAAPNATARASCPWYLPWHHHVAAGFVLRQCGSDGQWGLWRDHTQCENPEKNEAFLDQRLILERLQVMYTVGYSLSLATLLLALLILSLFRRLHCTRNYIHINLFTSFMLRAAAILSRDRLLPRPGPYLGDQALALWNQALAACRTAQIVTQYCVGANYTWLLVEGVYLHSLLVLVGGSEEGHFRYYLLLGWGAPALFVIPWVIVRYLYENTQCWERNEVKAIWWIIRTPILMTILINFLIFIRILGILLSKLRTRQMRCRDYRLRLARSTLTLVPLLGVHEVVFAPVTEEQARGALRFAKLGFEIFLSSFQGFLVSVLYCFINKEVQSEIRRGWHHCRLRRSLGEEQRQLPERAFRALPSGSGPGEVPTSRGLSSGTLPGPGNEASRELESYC
PROTOCOL: GIP receptor assay, method A (CRE-luciferase reporter, BHK cells)
Assay type: cell-based
CONDITION_INFO: method A, absence of HSA; read-out: hGIPR Potency, no HSA, EC50
pEC50: −log10 of the molar value. Numbered stars: 1 amine (or outer) side, 2 acyl side, 3 side chain; on linkers, the order of the positions; unused ones are H or OH. Square brackets hold non-standard residues; d marks the D form. Side chains are listed from the residue outwards. * marks the point of attachment. C18 diacid = O=C(O)CCCCCCCCCCCCCCCCC(=O)*; γGlu = O=C(O)[C@H](CCC(=O)[*:2])N[*:1]; AEEA = NCCOCCOCC(=O)O; Aib = CC(C)(N)C(=O)O

SUBSTANCE	pEC50
Y[Aib]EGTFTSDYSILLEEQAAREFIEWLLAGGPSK([AEEA-AEEA-γGlu-C18 diacid])GGQEPGQEPGEASHLSTAQTQRLSAELHELATLPRTETGSGSP-NH2 [Compound 39]	11.79
Y[Aib]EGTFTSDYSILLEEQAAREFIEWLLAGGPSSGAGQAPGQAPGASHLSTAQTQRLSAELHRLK([AEEA-AEEA-γGlu-C18 diacid])TLPRTETGSGSP-NH2 [Compound 56]	11.58
Y[Aib]EGTFTSDYSILLEEQAAREFIEWLLAGGPSRGEASELSTAALGRLSAELHK([AEEA-AEEA-γGlu-C18 diacid])LATLPRTETGSGSP-NH2 [Compound 67]	11.37
H[Aib]HGTFTSDYSILLEEQAAREFIEWLLAGGPSSGALQAPGQAPGASHLSTAQTARLSAELHRLATLPK([AEEA-AEEA-γGlu-C18 diacid])TETGSGSP-NH2 [Compound 107]	11.41
Y[Aib]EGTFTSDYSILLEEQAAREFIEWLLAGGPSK([AEEA-AEEA-γGlu-C18 diacid])GALAQTLGTNEASELSTAALGRLSAELHELATLPRTETGSGSP-NH2 [Compound 23]	11.92
